System: NCI-H322M lung
Experiment: NCI-60 one-dose screen, 48 h (100 = growth as untreated, 0 = no growth, -100 = all killed)
Conditions: 10 µM unless noted
Protocol: Growth inhibition of the NCI-H322M human Non-Small Cell Lung tumor cell line is measured as a screen for anti-cancer activity. Cells are grown in 96 well plates and exposed to the test compound for 48 hours. Compounds are tested at a single concentration, which is 10^-5 M for most compounds. The reported endpoint is percent growth (GI% or GIPRCNT), where numbers from 0 - 100% represent growth inhibition, and numbers from -100% - 0 represent cell death. […]
About 83,000 compounds went through this panel and 20% of them were active in at least one assay; those are over-represented in the sample as a whole. The source made the active and inactive calls. Rule for the calls: active = growth percent below 10; inactive = the rest.

| compound | growth |
| --- | --- |
| CCCCCCCCn1ccc2cc(NC(=O)Cn3cc(CN4CCCCCC4)nn3)ccc21 | 26.7% (inactive) |
| COc1ccc(-c2cc(-c3cc(OC)c(OC)c(OC)c3)c(C#N)c(=O)n2CCCCCC(=O)NO)cc1 | 95.7% (inactive) |
| Cc1ccc(/C=C/C(=O)c2ccc(NC(=O)CSc3nc4c([nH]3)c(=O)n(C)c(=O)n4C)cc2)c(C)c1 | 71.3% (inactive) |
| Cc1nn(-c2ccccc2)c(N2CCCCC2)c1/C=N/NC(=O)Cn1c(=O)sc2ccccc21 | 76.3% (inactive) |
| COC(=O)C1=Nc2ccc(F)cc2/C1=C\c1sc(Nc2ccc(O)cc2)nc1O | 96.7% (inactive) |
| Clc1ccc(-c2cn3ccsc3n2)c(Cl)c1Cl | 118% (inactive) |
| CCn1cc(C(=O)N/N=C/c2ccc(Br)cc2)c(=O)c2cc(F)c(N3CCNC(C)C3)c(F)c21 (stereo not drawn) | 85.8% (inactive) |
| C#CCOc1cccc(-c2ncc3cc(NC(=O)CCl)ccc3n2)c1 | 69.4% (inactive) |
| c1ccc(CNc2ccc3nc(CCC4CCCCC4)[nH]c3c2)cc1 | 86.7% (inactive) |
| COc1ccc(Cn2cc(C(=O)N=Nc3c(O)[nH]c4c(Cl)cccc34)nn2)cc1 | 101% (inactive) |
| CCn1cc(C(=O)NN=C2CCCCCC2)c(=O)c2ccc(C)nc21 | 88.7% (inactive) |
| COC(c1ccc2ccccc2c1)C(C)C(F)F (stereo not drawn) | 99.6% (inactive) |
| C#CC#CC#CC#CC#CC#CC#CC#CC[C@H]1OC[C@H](COC(=O)O[C@@H](C(=O)O[C@H]2C[C@@]3(O)[C@@H](OC(=O)c4ccccc4)[C@@H]4[C@]5(OC(C)=O)CO[C@@H]5C[C@H](O)[C@@]4(C)C(=O)[C@H](OC(C)=O)C(=C2C)C3(C)C)[C@@H](NC(=O)c2ccccc2)c2ccccc2)O1 | 53.6% (inactive) |
| O=C(CCCCCCCCC(=O)N/N=C\c1cc(Cl)ccc1O)N/N=C\c1cc(Cl)ccc1O | 41.1% (inactive) |
| COc1ccc(/C=C/C(=O)c2cc3c(N)c(C(=O)Nc4ccccc4C)sc3nc2C)cc1 | 35.7% (inactive) |
| CCOC(=O)C1=C(C)N=C2SC=C(c3ccccc3)N2[C@H]1c1cn[nH]c1-c1ccc(Cl)cc1 | 78.7% (inactive) |
| CCN1C(=O)N(CC)C2C1NN=C1SCC(=O)N12 (stereo not drawn) | 103% (inactive) |
| CCN=C1C=CC(=C(c2ccc(N(C)C)cc2)c2ccc(N(C)C)cc2)c2ccccc21 | -30.1% (active) |
